Give z-score for every item shown.
- test-protocol: JC-1 mitochondrial signal, unstimulated HepG2 cells – cell-based, JC-1 fluorescence, 24 h, 100 nL compound, profiling panel (AID 1167); note: test concentration not given here
- condition-summary: HepG2 mitochondrial potential, higher = more signal
Give a plain numeric answer without units written out.

Ask: Would you mind telling me what z-score value was observed for O=C1O[C@@H](c2ccccc2)[C@@H](c2ccccc2)N2[C@@H](c3ccccc3OCCO)[C@]3(C(=O)Nc4ccc(C#CC5(O)CCCCCC5)cc43)[C@@H](C(=O)N3CCN(c4ncccn4)CC3)[C@H]12 ?
Reply: -0.457

Ask: O=C1O[C@@H](c2ccccc2)[C@@H](c2ccccc2)N2[C@@H](c3ccccc3OCCO)[C@]3(C(=O)Nc4ccccc43)[C@@H](C(=O)O)[C@H]12 , same question.
Reply: 0.249

Ask: CC(C)[Si](C#CCCCC#N)(O[C@H](c1ccccc1)c1cn(Cc2cccc(Cl)c2)nn1)C(C)C , same question.
Reply: 6.65

====

Give composite z-score for every item shown.
- test-protocol: probe aCHRDL2 binding to arrayed compounds – biochemical, biotinylated probe, 635/667 nm fluorescence, primary screen (AID 1100)
- condition-summary: small-molecule microarray, higher = more signal
Give a plain numeric answer without units written out.

Ask: Would you mind telling me what composite z-score value was observed for COCCCNC(=O)[C@@]1(Sc2ccc(C)cc2)CC(=O)N(Cc2ccccc2Cl)[C@@H]1c1ccc(CO)cc1 ?
Reply: 0.0166

Ask: C=CC[C@]1(C(=O)N2CCOCC2)N=C(c2ccc(OCCCO)cc2)O[C@H]1c1ccccc1N=[N+]=[N-] , same question.
Reply: 1.17

Ask: COCCCNC(=O)[C@@]1(CCS(=O)(=O)c2ccccc2)N=C(c2ccc(OCCCO)cc2)O[C@H]1c1ccccc1N=[N+]=[N-] , same question.
Reply: 0.942

Ask: CN1C(=O)C2C=CC(C(O)c3c(F)cccc3Cl)N(NC(=O)OC(C)(C)C)C2C1=O (configuration not stated) , same question.
Reply: 1.09

Ask: COCCOC(=O)N1C(=O)[C@@]2(c3cc(C#CC4=CCCCC4)ccc31)[C@H](c1ccc(OCCO)cc1)N1[C@H](c3ccccc3)[C@H](c3ccccc3)OC(=O)[C@H]1[C@@H]2C(=O)N1CCc2cc(OC)c(OC)cc2C1 , same question.
Reply: 0.538

Ask: C=CCN1Cc2ccccc2[C@@H]2OC(c3ccc(OCCCO)cc3)=N[C@]2(CCS(=O)(=O)c2ccccc2)C1=O , same question.
Reply: 0.825

Ask: NC(=O)[C@@H]1[C@H]2C(=O)O[C@H](c3ccccc3)[C@H](c3ccccc3)N2[C@H](c2ccc(OCCO)cc2)[C@@]12C(=O)Nc1ccc(C#CC3=CCCCC3)cc12 , same question.
Reply: -0.233

====

- test-protocol: change in splice reporter luminescence, either direction, cell-based, HEK293, spliceosome inhibition project, primary screen (AID 1101);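 note: HEK293 cells carrying a splicing-competent luciferase reporter gene; test concentration not given here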
- condition-summary: HEK293 splicing luciferase reporter, 24 h, higher = more signal, called active from +8 up or from −8 down
Use Condition met when the recorded z-score is no lower than -0.5; use Condition not met when it is lower.

Ask: Reported z-score reaches at least -0.5 for O=C1C2C=CC(C(O)C=Cc3ccc([N+](=O)[O-])cc3)N(n3cnnc3)C2C(=O)N1Cc1ccccc1 (configuration not stated) ?
Reply: Condition met

Ask: COCCCNC(=O)[C@@]1(Cc2ccccc2CN=[N+]=[N-])N=C(c2ccc(OCCCO)cc2)O[C@H]1c1ccccc1CN=[N+]=[N-] , same question.
Reply: Condition not met

Ask: O[C@@H](Cc1ccccc1)[C@@H](/C=C/C1CC1)NCc1cccc(Cl)c1 , same question.
Reply: Condition not met

Ask: O=C(O)C1N=C(c2ccc(OCCCO)cc2)N(c2ccccc2)O1 (configuration not stated) , same question.
Reply: Condition met

Ask: C=CC1c2cc(O)c(OC)cc2CCN1Cc1cccc(OC(F)(F)F)c1 (configuration not stated) , same question.
Reply: Condition not met

Ask: COC(=O)[C@@]1(Cc2ccccc2)[C@H]2c3cc(C(=O)N4CCCC4)n(Cc4ccc(O)c(OC)c4)c3C[C@H]2CN1C(=O)c1ccccc1 , same question.
Reply: Condition not met

Ask: COCCOC(=O)N1C(=O)[C@@]2(c3ccccc31)[C@H](C(=O)N1CCCCCCC1)[C@H]1C(=O)O[C@H](c3ccccc3)[C@H](c3ccccc3)N1[C@@H]2c1ccc(OCCO)cc1 , same question.
Reply: Condition not met

Ask: COC(=O)[C@H](Cc1ccccc1)N[C@H](/C=C/C1CC1)[C@@H](O)Cc1ccccc1 , same question.
Reply: Condition not met

Ask: OCCCC1=CC(C2CC2)N(Cc2cccc(OC(F)(F)F)c2)CC1 (configuration not stated) , same question.
Reply: Condition met

Ask: Cc1c(NC(=O)/C(C#N)=C/c2cccc([N+](=O)[O-])c2)c(=O)n(-c2ccccc2)n1C , same question.
Reply: Condition not met

Ask: COCCOC(=O)N1C(=O)[C@@]2(c3cc(C#CCCO)ccc31)[C@H](c1ccc(O)cc1)N1[C@H](c3ccccc3)[C@H](c3ccccc3)OC(=O)[C@H]1[C@@H]2C(=O)N1CCN(c2ncccn2)CC1 , same question.
Reply: Condition met

Ask: CCC(CC)C(O)C1C=CC2C(=O)N(c3ccccc3)C(=O)C2N1Nc1ccccc1 (configuration not stated) , same question.
Reply: Condition met

Ask: O=C1C2C=CC(C(O)c3c(F)cccc3Cl)N(Nc3ccccc3F)C2C(=O)N1c1ccccc1 (configuration not stated) , same question.
Reply: Condition met

Ask: CCOC(=O)C[C@H]1[C@H](OC(=O)c2ccc(C(=O)c3ccccc3)cc2)[C@@H](NC(=O)c2ccccc2)c2cc(OCCCO)ccc2N1C(=O)c1ccccc1 , same question.
Reply: Condition met

Ask: CC(C)[C@@H](C(=O)O)n1cc(C2(O)CCCCC2)nn1 , same question.
Reply: Condition met

Ask: O=C(NCCN1CCOCC1)[C@@H]1c2ccccc2C(=O)N(Cc2cc(C(F)(F)F)cc(C(F)(F)F)c2)[C@H]1c1ccc(CO)cc1 , same question.
Reply: Condition met

====

- test-protocol: blockers of DNA damage checkpoint Chk1 activation – imaging, HeLa, hydroxyurea, phospho-Chk1 nuclear intensity, primary screen (AID 1187); note: test concentration not given here
- condition-summary: hydroxyurea-induced phospho-Chk1 immunofluorescence imaging, higher = more signal
parameter-measured: z-score
Give a plain numeric answer without units written out.

Ask: Would you mind telling me what z-score value was observed for C=C(CCCC)C(=O)CC[C@H](OC(=O)c1cccnc1)c1ccc(OCCO)cc1 ?
Reply: 0.433

Ask: C=CCC(OC(C)=O)[C@@H]1[C@@H](N(Cc2ccc(-c3cccc(C(F)(F)F)c3)o2)C(=O)c2cccc3ccccc23)c2cc(OCCCO)ccc2N1C(=O)Cc1ccc2ccccc2c1 (stereo not given in full) , same question.
Reply: 0.504

Ask: COCC(=C=CC[C@H](O)c1cccc(OCCO)c1)C[C@H](O)c1cc(Cl)cc(Cl)c1O , same question.
Reply: 0.532

Ask: COc1ccc([C@H]2C[C@H]3C(I)=C[C@@H]2C(=O)[C@]32CO2)cc1 , same question.
Reply: -0.217

Ask: C#CCNCc1ccccc1 , same question.
Reply: -0.392

====

- test-protocol: budding yeast growth modifiers under rapamycin – strain BY4716, OD600, 96 h, primary screen (AID 1091); note: test concentration not given here
- condition-summary: S. cerevisiae BY4716 + rapamycin, higher = more signal, called active from +8 up or from −8 down
Use true (1) when the recorded z-score is no lower than 2; use false (0) when it is lower.

Ask: Reported z-score reaches at least 2 for COc1cc2c(cc1OC)CN(C(=O)[C@H]1[C@@H]3C(=O)O[C@@H](c4ccccc4)[C@@H](c4ccccc4)N3[C@@H](c3ccccc3OCCO)[C@]13C(=O)Nc1ccc(C#CCCO)cc13)CC2 ?
Reply: true (1)

Ask: O=C1O[C@@H](c2ccccc2)[C@@H](c2ccccc2)N2[C@@H](c3ccc(OCCO)cc3)[C@]3(C(=O)Nc4ccc(C#CCCO)cc43)[C@@H](C(=O)NC[C@H](O)c3ccccc3)[C@H]12 , same question.
Reply: true (1)

Ask: CN1C(=O)C2C=CC(C(O)c3ccccc3)N(N3CCCCC3)C2C1=O (configuration not stated) , same question.
Reply: false (0)

Ask: NCCCCCNC(=O)[C@H]1C[C@H]2C(=O)N3CCC[C@H]3C(=O)N2[C@H]1c1ccc(O)cc1 , same question.
Reply: false (0)

Ask: CCCC=C(CCC)[C@@H](NC(=O)OCC(C)C)c1ccccc1 , same question.
Reply: false (0)

Ask: COCCOC(=O)N1C(=O)[C@@]2(c3ccccc31)[C@H](C(=O)N1CCc3cc(OC)c(OC)cc3C1)[C@H]1C(=O)O[C@H](c3ccccc3)[C@H](c3ccccc3)N1[C@@H]2c1ccc(O)cc1 , same question.
Reply: false (0)

Ask: O=C(O)C1N=C(c2ccc(OCCCO)cc2)N(c2ccccc2)O1 (configuration not stated) , same question.
Reply: false (0)
